Reference source for all entries: PubChem BioAssay (NCI)

system: OVCAR-3 ovarian; assay: NCI-60 one-dose screen, 48 h; conditions: 10 µM unless noted
About 83,000 compounds went through this panel and 20% of them were active in at least one assay; those are over-represented in the sample as a whole. The source made the active and inactive calls. Rule for the calls: active = growth percent below 10; inactive = the rest.
Select the matching outcome among Yes for active, No for inactive

{"Compound": "O=C(O)CC1Sc2ccccc2NC1=O (stereo not given)", "Cat": "No"}
{"Compound": "N=C(N)c1ccc(-c2ccc(-c3ccc(Cl)c(Cl)c3)o2)cc1", "Cat": "Yes"}

Kindly provide the recorded test outcome for the following compound: `COc1ccc(-c2cn(-c3cccc(C(=O)/C=C/c4cc(OC)c(OC)c(OC)c4)c3)c(=O)[nH]2)cc1`
Yes

Kindly provide the recorded test outcome for the following compound: `COc1ccc(-c2nc3ccccn3c2/C=C/C(=O)c2cc(OC)c(OC)c(OC)c2)cc1`
No

Kindly provide the recorded test outcome for the following compound: `COC(=O)Nc1nc2ccc(C(=O)C3CC3)cc2[nH]1`
Yes

Kindly provide the recorded test outcome for the following compound: `Cc1c(C(N)=O)sc2nc(C)n(/N=c3\scc(-c4ccccc4)n3Cc3ccccc3)c(=O)c12`
Yes

Kindly provide the recorded test outcome for the following compound: `C#C[C@]1(O)CC[C@H]2[C@@H]3CC=C4c5sc(N=C(N)N)nc5CC[C@]4(C)[C@H]3CC[C@@]21C`
Yes

Kindly provide the recorded test outcome for the following compound: O=C(NCOC(O)C(Cl)(Cl)Cl)NCOC(O)C(Cl)(Cl)Cl (stereo not given)
No

Kindly provide the recorded test outcome for the following compound: `CCOC(=O)c1cnn2c(-c3ccc(Cl)cc3)nc(NCc3ccccc3)nc12`
No

Kindly provide the recorded test outcome for the following compound: `O=C(CCCCCCCn1cc(-c2cccnc2)nn1)Nc1ccccc1-c1ccccc1`
No
